Measured values drawn from PubChem BioAssay (NCATS) for this set.

experiment: qHTS of pediatric cancer cell lines to identify multiple opportunities for drug repurposing: Confirmatory screen for SK-N-MC cells (AID 1347111); conditions: SK-N-MC cell viability; series mostly up to 45.9 µM;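 further: cells exposed to compound for 48 h before the readout; nearly all actives have a fitted effect of over 70% in size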; further: potency means the concentration at half of the fitted maximal effect
Records with an inconclusive call do not appear. Activity calls are given as the source filed them. The call rests on the fitted dose curve; in most records, active means well fitted cell-killing curve with a large enough effect; inconclusive means small, poorly fitted or top-dose-only effect; inactive means no such curve, though single readings can be large or run the other way.

{"columns": ["given smiles", "Potency"],
 "data": [
  ["NC(=O)CC[C@@H]1NC(=O)[C@H](Cc2ccccc2)NC(=O)[C@H](Cc2ccc(O)cc2)NC(=O)CCSSC[C@@H](C(=O)N2CCC[C@H]2C(=O)N[C@@H](CCCN=C(N)N)C(=O)NCC(N)=O)NC(=O)[C@H](CC(N)=O)NC1=O", "inactive"],
  ["CCCCCCC[N+](CC)(CC)CCCCc1ccc(Cl)cc1", "9.27 µM (active)"],
  ["CC(=O)OCC(=O)[C@@]1(O)[C@H](C)C[C@H]2[C@@H]3CCC4=CC(=O)C=C[C@]4(C)[C@@]3(F)[C@@H](O)C[C@@]21C", "29.3 µM (active)"],
  ["CC(=O)OCC(=O)[C@@]1(O)CC[C@H]2[C@@H]3CCC4=CC(=O)C=C[C@]4(C)[C@H]3[C@@H](O)C[C@@]21C", "inactive"]
]}
